B1: Zinc finger homeobox protein 3, residues 2147 to 2202; numbered along this chain, Q15911 (parent)
chain: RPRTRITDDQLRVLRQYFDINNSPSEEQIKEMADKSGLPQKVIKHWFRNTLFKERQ

variants of: B1; assay: abundance fitness (aPCA) (normalised: wild type 0, dead -1); higher = more abundant; growth selection in yeast, the domain comes from the species named; details: Homo sapiens
MEASURED ATTRIBUTE: abundance fitness
Please reply with the number alone, leaving off any unit.

Known abundance fitness results, listed for orientation:
Ask: What value of abundance fitness has been reported for the following variant? R48M
Result: -0.06

Ask: What value of abundance fitness has been reported for the following variant? N22V
Result: -0.022

Ask: What value of abundance fitness has been reported for the following variant? R55N
Result: -0.356

Ask: What value of abundance fitness has been reported for the following variant? Q16A
Result: -0.065

Ask: What value of abundance fitness has been reported for the following variant? E26F
Result: -0.071

More entries:
Ask: What value of abundance fitness has been reported for the following variant? S25G
Result: 0.024

Ask: What value of abundance fitness has been reported for the following variant? Q10A
Result: -0.263

Ask: What value of abundance fitness has been reported for the following variant? H45M
Result: 0.029
